Tested on: Leptinotarsa decemlineata
measurement_protocol: Insecticidal activity against second-instar larval stage of Leptinotarsa decemlineata infested potato leaves assessed as mortality at 20 ul after 96 hr (reference value: 3.3 +/- 3.3%)
Format: functional
reported_property: mortality (%)
Respond with the bare value in %.

compound	observed_value
CC12CCC(CC1)C(C)(C)O2	100

Task: Look up mortality for this compound: C=C(C)[C@@H]1CC[C@@H](C)C(=O)C1 [DIHYDROCARVONE]
Result: 100

Task: Similarly, CC(C)[C@H]1CC[C@H](C)CC1=O (relative stereo) ?
Result: 56.7

Task: Similarly, CC1=CCC(C(C)C)=CC1 ?
Result: 100

Task: Similarly, C=C(C)C1CCC2(C)OC2C1 (stereo not drawn) [LIMONENE OXIDE] ?
Result: 96.7

Task: Similarly, CC(C)=CCC[C@@H](C)CC=O ?
Result: 93.3

Task: Similarly, CC1=CCC(O)(C(C)C)CC1 (stereo not drawn) ?
Result: 100

Task: Similarly, C/C=C(C)/C=C/C=C(C)C ?
Result: 60
